target_under_test: Torsin-1A (Homo sapiens) (UniProt O14656)
Sequence (O14656 whole entry, looked up): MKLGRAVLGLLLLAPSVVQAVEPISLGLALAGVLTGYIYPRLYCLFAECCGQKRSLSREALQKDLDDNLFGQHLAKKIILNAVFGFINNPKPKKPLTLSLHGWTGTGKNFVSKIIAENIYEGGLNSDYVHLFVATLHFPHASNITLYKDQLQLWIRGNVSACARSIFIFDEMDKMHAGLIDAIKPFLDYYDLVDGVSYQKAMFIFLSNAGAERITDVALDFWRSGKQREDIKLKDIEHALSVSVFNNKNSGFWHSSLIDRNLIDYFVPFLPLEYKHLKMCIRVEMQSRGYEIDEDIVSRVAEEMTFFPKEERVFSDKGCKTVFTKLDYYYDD
assay_summary: TOR1A wild-type binding on microarray – cell lysate, small-molecule microarray, lysate, 635/667 nm, primary screen (AID 1149)
measurement_conditions: COS7 hTOR1A-WT lysate, 635 nm fluorescence, higher = more signal
recorded_metric: composite z-score
Answer with the value's number alone.

Query string: Read off the recorded composite z-score for `O=C(O)[C@]1(CCS(=O)(=O)c2ccccc2)N=C(c2ccc(OCCCO)cc2)O[C@@H]1c1ccccc1`
Result string: -0.0493

Query string: Read off the recorded composite z-score for `O=C1O[C@H](c2ccccc2)[C@H](c2ccccc2)N2[C@H]1[C@@H](C(=O)N1CCCCCCC1)[C@]1(C(=O)Nc3ccc(C#CCCO)cc31)[C@H]2c1ccc(OCCO)cc1`
Result string: 3.41

Query string: Read off the recorded composite z-score for CN1C(=O)C2C=CC(C(O)c3ccc(F)cc3)N(N3CCCCC3)C2C1=O (stereo not drawn)
Result string: 0.759

Query string: Read off the recorded composite z-score for COc1cc(NN2C(C(O)c3ccc(I)cc3)C=CC3C(=O)N(C)C(=O)C32)cc(OC)c1OC (stereo not drawn)
Result string: -0.442

Query string: Read off the recorded composite z-score for `COC(=O)[C@H]1N=C(c2ccc(OCCCO)cc2)O[C@H]1c1ccccc1CN=[N+]=[N-]`
Result string: -1.66

Query string: Read off the recorded composite z-score for CN1C(=O)C2C=CC(C(O)C3CCCCC3)N(N(c3ccccc3)c3ccccc3)C2C1=O (stereo not drawn)
Result string: -0.08

Query string: Read off the recorded composite z-score for `O=C1C[C@@](C(=O)NCc2ccccc2)(c2ccc([N+](=O)[O-])cc2)[C@@H](c2ccc(CO)cc2I)N1C1CCCCC1`
Result string: 0.89

Query string: Read off the recorded composite z-score for `CCCNC(=O)[C@@]1(Sc2ccc(C)cc2)CC(=O)N(Cc2ccccc2)[C@@H]1c1ccc(CO)cc1I`
Result string: 0.123
